Assay procedure: NCI Yeast Anticancer Drug Screen. Data for the rad50EPP+ strain (AID 151);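 further: 0% = growth of vehicle-treated control cultures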
Study conditions: S. cerevisiae rad50 mutant strain, at 11.0 µM, active compounds read high
About 79,000 compounds went through this panel and 15% of them were active in at least one assay; those are over-represented in the sample as a whole.
Metric name: growth inhibition (%)
State just the number; it will be interpreted in %.

Compound	Unit spec	Observed
Cc1ccc(S(=O)(=O)Nc2ccc3c(c2)C(O)c2ccccc2-3)cc1 (stereo not drawn)	%	31
CC(C)c1cccc(O)c(=O)c1	%	-20
CCNc1ccc2c(c1)C(=O)N(OS(C)(=O)=O)C2=O	%	7
N#CC(=C1C=CC(=NO)C=C1)c1ccccc1	%	96
O=C1CSC(=S)N1Cc1ccc(Cl)cc1Cl	%	97
CC(=O)O[C@H]1C(=O)[C@@]2(C)[C@H]([C@H](OC(=O)c3ccccc3)[C@]3(O)C[C@H](OC(=O)[C@H](O)[C@@H](NC(=O)c4ccccc4)c4ccccc4)C(C)=C1C3(C)C)[C@]1(OC(C)=O)CO[C@@H]1C[C@@H]2O	%	-2
C(=N/NC1=NCCN1)/c1c2ccccc2c(/C=N\NC2=NCCN2)c2ccccc12	%	81

Now for another entry.
Value of measured growth inhibition for the entry "COC(=O)c1oc([N+](=O)[O-])c(Cl)c1Cl" : 93

====

Assay procedure: NCI Yeast Anticancer Drug Screen. Data for the rad14 strain (AID 159);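 further: 0% = growth of vehicle-treated control cultures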
Study conditions: S. cerevisiae rad14 strain growth inhibition; at 100.0 µM
This is part of a sample that, as a whole, favours compounds with a hit. Of some 79,000 tested, about 15% had one in any assay. Activity calls are given as the source filed them. Cut-off read from the data, not from the text of the source: active = growth inhibition above about 70%; inactive = the rest.
# valid calls are class 1 = active, class 0 = inactive; nothing else

Consider the worked cases shown below.
> print(dat)
                               molecule  assigned.category
1  O=c1[nH]cc(/C=N\Nc2ccccc2)c(=O)[nH]1            class 0
2   Nc1nc(N)c2cc(Sc3ccc4ccccc4c3)ccc2n1            class 1

Qu. Would you mind telling me which call this test gave "CCCCCCCCCCCCCCCCCCNC(=S)/N=C\C1=C(O)c2ccccc2C1=O" ?
Ans. class 0

Qu. For "CCOC(=O)[C@]1(Br)CC[C@@]1(Br)C(=O)OCC" , which call appears in the assay record?
Ans. class 1

Qu. Call for entry "CCCCC(=O)c1c(O)nc2sccn2c1=O" :
Ans. class 1

Qu. What outcome does the record of this test show for "CCOC(=O)CNC(=O)c1[nH]cnc1/N=N/N(C)C" ?
Ans. class 1

Qu. // return assay outcome for "CCN(CC)N=Nc1c(C(N)=O)n[nH]c1C"
Ans. class 0

====

Assay procedure: NCI Yeast Anticancer Drug Screen. Data for the mec2-1 strain (AID 157)
Study conditions: S. cerevisiae mec2-1 strain, at 100.0 µM
Compounds without any hit were thinned out: in the full panel of roughly 79,000, 15% have a hit. The source made the active and inactive calls. No stated cut-off is given here; in the data, active means growth inhibition above about 70%; inactive means the rest.
Could you please pick one outcome from this set? yes (active), no (inactive)

Examples from the recorded data:
> print(dat)
                                   compound  assigned.category
1               c1ccc2c(c1)Cn1c-2nc2ccccc21                yes
2                CN(C)c1ccc(N=Nc2ccccn2)cc1                yes
3           COc1ccc(N)c2c1C(=O)c1ccccc1C2=O                yes
4                 CSc1s[s+]c(SC)c1-c1ccccc1                 no
5  COC(=O)CSc1nnc(CSc2ccc(Cl)cc2)n1-c1ccccc1                 no
6  CN=C(N)N/N=C(\C)c1ccc2oc3ccc(/C(C)=N/NC(N)=NC)cc3c2c1                yes
7  CC1C(C#N)(C#N)C(C#N)=C(N)C1(Cl)[N+](=O)[O-] (configuration not stated)                yes
8  O=[N+]([O-])c1cccc2nc3ccccc3c(NCCc3cccc[n+]3[O-])c12                yes

Qu. Call for entry "CCN1/C(=C/c2ccc3ccccc3[n+]2CC)C=Cc2ccccc21" :
Ans. yes

Qu. State the result this test recorded for CC1(C)C(C=O)=CCC1CC(N)=O (configuration not stated) .
Ans. yes

Qu. Which outcome was entered for the compound "Cc1ccc(S(=O)(=O)N(C)c2ccc(Cl)cc2C2=NCCc3ccccc32)cc1" in this test?
Ans. yes

Qu. Lab log entry: "Nc1ccc2c(c1)sc1ccccc12" — outcome as called in the assay?
Ans. yes
